As shown below, each of these molecules has a reported Kd value.
- measurement.target: horse spleen apoferritin (HSAF) (Equus caballus, UniProt P02791)
- Sequence (P02791 2-175): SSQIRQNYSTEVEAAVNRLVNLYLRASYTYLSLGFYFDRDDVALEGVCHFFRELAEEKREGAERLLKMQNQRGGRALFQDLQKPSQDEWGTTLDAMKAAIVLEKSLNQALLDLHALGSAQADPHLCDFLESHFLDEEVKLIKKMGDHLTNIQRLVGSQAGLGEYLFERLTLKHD
- Sequence (Q8MIP0 2-182 partner): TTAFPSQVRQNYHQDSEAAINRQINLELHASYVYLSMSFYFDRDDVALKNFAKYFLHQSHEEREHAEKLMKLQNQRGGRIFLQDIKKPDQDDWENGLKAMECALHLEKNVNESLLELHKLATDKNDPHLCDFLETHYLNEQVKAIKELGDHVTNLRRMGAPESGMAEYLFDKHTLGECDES
- experiment.notes: isothermal titration calorimetry

>>> result("FC(F)OC(Cl)C(F)(F)F (centres unmarked)")
"58 µM"

Let us move to another entry and its Kd.
Kindly note: horse spleen apoferritin (HSAF) (Equus caballus, UniProt P02791), FC(F)(F)C(Cl)OC(F)(F)C1N=N1 (racemic) , Kd value reported: 6 µM
